# conditionInfo: pH 7.0
Quick rule for you: logD at 3 or higher means 1.0, lower means 0.0.

IN: Does the reported logD for CCOC(=O)CSc1nc(C(C)(C)C)nn1C(=O)N(C)C fall at or above the 3 mark?
OUT: 0.0

IN: Try this molecule too: CC(C)C(O)(c1ccc(OC(F)(F)F)cc1)c1cncnc1 (stereo unspecified)
OUT: 1.0

IN: Item: CCOC(=O)CCN(SN(C)C(=O)Oc1cccc2c1OC(C)(C)C2)C(C)C
OUT: 1.0

IN: Do the same for CN1CSC(=S)N(C)C1 please
OUT: 0.0

IN: Another molecule to look at: COc1cc(OC)n2nc(S(=O)(=O)Nc3c(Cl)ccc(C)c3Cl)nc2n1
OUT: 0.0

* * *

Record form. Attribute: logD. Fill in for each entry.
# conditionInfo: pH 5.0
Quick one: just the number, no unit, thanks!

IN: Entry CCS(=O)(=O)c1cccnc1S(=O)(=O)NC(=O)Nc1nc(OC)cc(OC)n1 has what logD?
OUT: 0.29

IN: Input Cc1cc(C2CC2)nc(Nc2ccccc2)n1
OUT: 3.9

* * *

Exercise: state measured logP for each of the compounds provided.
API doc: respond with a numeric literal and nothing else, no unit.

IN: Form field: reported logP of COP(=O)(OC)OC1=C(Cl)C2C=CCC12 (stereo unspecified)
OUT: 2.32

IN: Next: Cl/C=C\CCl
OUT: 2.06

IN: Follow-up item: CC(C)C1CCC(Cc2ccc(Cl)cc2)C1(O)Cn1cncn1 (stereo unspecified)
OUT: 4.21

IN: Lookup CC1(C)[C@H](C(=O)O[C@H](C#N)c2cccc(Oc3ccccc3)c2)[C@@H]1C(Br)C(Br)(Br)Br (stereo partly specified)
OUT: 5

IN: What do you have for O=C1C2CC=CCC2C(=O)N1SC(Cl)(Cl)Cl (stereo unspecified) ?
OUT: 2.78

IN: Okay, and CCOCCOC(=O)C(C)Oc1ccc(Oc2ncc(C(F)(F)F)cc2Cl)cc1 (stereo unspecified) ?
OUT: 4.33

* * *

assayReadout: logP
The answer should be written as a number, with no unit following it.

IN: logP for CCN(CC)C(=O)C(C)Oc1cccc2ccccc12 (stereo not given) ?
OUT: 3.3

IN: // next record O=C(Nc1ccc(Cl)cc1C(O)c1ccccc1)c1ccncc1 (stereo not given)
OUT: 3.13

IN: Now try COc1ccc(/C(=C\C(=O)N2CCOCC2)c2ccc(Cl)cc2)cc1OC .
OUT: 2.73

IN: What would you report for CC(C)OC(=O)C(C(=O)OC(C)C)=C1SCCS1 ?
OUT: 3.3

IN: Try the compound CCCCCOC(=O)COc1cc(N2C(=O)C3=C(CCCC3)C2=O)c(F)cc1Cl
OUT: 4.99

IN: Thanks! And CCOCN(C(=O)CCl)c1c(C)cccc1CC ?
OUT: 3.03

IN: Similarly, CC(C)OC(=O)C(O)(c1ccc(Br)cc1)c1ccc(Br)cc1 ?
OUT: 5.4

IN: Please give the result for CN(C)C(=O)Nc1ccc(-n2nc(C(C)(C)C)oc2=O)c(Cl)c1 too.
OUT: 2.51

IN: Consider next the compound CCSCc1ccccc1OC(=O)NC in the same way.
OUT: 2.04

IN: What do you have for NC(=O)c1nc(-c2ccccc2)n(-c2ccc(Cl)c(COCC(F)(F)C(F)(F)F)c2)n1 ?
OUT: 3.27

IN: O=S(=O)(c1ccc(Cl)cc1)c1cc(Cl)c(Cl)cc1Cl , same question.
OUT: 4.61

IN: What do we get for CON(C)C(=O)Nc1ccc(Br)cc1 ?
OUT: 2.41

IN: Can you handle CC1(C)C(C=C(Cl)Cl)C1C(=O)OC(C#N)c1ccc(F)c(Oc2ccccc2)c1 (stereo not given) next?
OUT: 5.93

IN: Next compound: Nc1cnn(-c2ccccc2)c(=O)c1Cl
OUT: 1.19

IN: One more compound: C=CCCCOC(=O)C(CC)N(Cc1ccco1)C(=O)n1ccnc1 (stereo not given)
OUT: 3

IN: Cool, now CN(C)C(=O)Nc1cc(C(C)(C)C)on1
OUT: 1.98

IN: Now try CCOP(=O)(SC(C)CC)SC(C)CC (stereo not given) .
OUT: 3.9

IN: Lookup CCOC(=O)C1(C)OC(=O)N(c2cc(Cl)cc(Cl)c2)C1=O (stereo not given)
OUT: 3.3

IN: Try this compound too: CC(C)=CC1C(C(=O)OCN2C(=O)C3=C(CCCC3)C2=O)C1(C)C (stereo not given)
OUT: 4.49

IN: Same again, this time with OC1(c2ccc(Cl)cc2)CCCCCC1n1cncn1 (stereo not given)
OUT: 3.02

IN: Entry C/C=C/C(=O)Oc1c(C(C)CCCCCC)cc([N+](=O)[O-])cc1[N+](=O)[O-] (stereo not given) please
OUT: 4.54

IN: Try CNC(=O)ON=C(C)C(C)SC (stereo not given) next.
OUT: 1.11

IN: Proceed to CCOP(=S)(OCC)Oc1nc(Cl)n(C(C)C)n1
OUT: 2.99

IN: Similarly, CC(C)N1C(=O)N(c2ccccc2)CS/C1=N\C(C)(C)C ?
OUT: 4.3

IN: Can you handle O=CNC(N1CCN(C(NC=O)C(Cl)(Cl)Cl)CC1)C(Cl)(Cl)Cl (stereo not given) next?
OUT: 2.2
